Recorded measurements of pIC50, one per entry
Molecular target: UniProtKB P03956
Sequence (P03956 100-469, species assumed): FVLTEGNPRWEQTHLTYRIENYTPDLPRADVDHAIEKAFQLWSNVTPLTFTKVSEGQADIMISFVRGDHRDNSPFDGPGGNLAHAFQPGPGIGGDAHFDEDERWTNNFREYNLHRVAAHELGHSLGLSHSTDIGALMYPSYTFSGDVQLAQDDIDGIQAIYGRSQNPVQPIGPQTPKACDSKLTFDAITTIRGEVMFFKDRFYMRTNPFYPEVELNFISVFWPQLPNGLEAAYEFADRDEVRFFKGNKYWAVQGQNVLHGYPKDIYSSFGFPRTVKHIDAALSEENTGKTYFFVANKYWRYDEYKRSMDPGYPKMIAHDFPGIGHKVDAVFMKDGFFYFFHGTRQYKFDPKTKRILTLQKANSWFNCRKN
pIC50: −log10 of the molar value.
RECORDED_METRIC: pIC50

CN(C)CCS(=O)(=O)N1CCN(S(=O)(=O)c2cc(F)c(Oc3ccc(Cl)cc3)c(F)c2)[C@@H](C(=O)NO)C1
6.00 to 7.30
COCCOC(=O)N1CCN(S(=O)(=O)c2cc(F)c(Oc3ccc(F)cc3)c(F)c2)[C@@H](C(=O)NO)C1
4.70 to 6.00
O=C(NO)[C@H]1CN(S(=O)(=O)NC(=O)N2CCCCC2)CCN1S(=O)(=O)c1cc(F)c(Oc2ccc(Cl)cc2)c(F)c1
4.70 to 6.00
CN1CCN(CC(=O)N2CCN(S(=O)(=O)c3cc(F)c(Oc4ccc(Cl)cc4)c(F)c3)[C@@H](C(=O)NO)C2)CC1
< 4.70

Hey, just so you know, these numbers are from patent US7629341B2.
